tested-on: T1, TNFR1 (Homo sapiens, UniProt P19438)
T1 chain: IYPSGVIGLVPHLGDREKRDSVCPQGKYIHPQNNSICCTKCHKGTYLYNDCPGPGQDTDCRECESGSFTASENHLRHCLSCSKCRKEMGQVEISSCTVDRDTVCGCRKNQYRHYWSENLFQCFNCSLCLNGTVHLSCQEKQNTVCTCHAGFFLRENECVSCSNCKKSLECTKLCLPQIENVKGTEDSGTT
experiment-summary: yeast display SC50
Class assignment keyed on apparent Kd (screen), ranges low: < 0.7 nM; moderate: ≥ 0.7 nM and < 4 nM; high: ≥ 4 nM

• E45F (designed binder) SMEEEVEKAAKEYEKKKKEAIEKHLEKLKAKDKEAAERFLKELEFAAKEYAKDEAKTMSEEEAKRRAKKYKEKVLLSELSEEEQKEIKEAEEKLVRTILKYVEEAAK = high
• A105H (designed binder) SMEEEVEKAAKEYEKKKKEAIEKHLEKLKAKDKEAAERFLKELEEAAKEYAKDEAKTMSEEEAKRRAKKYKEKVLLSELSEEEQKEIKEAEEKLVRTILKYVEEHAK = moderate
• F39T (designed binder) SMEEEVEKAAKEYEKKKKEAIEKHLEKLKAKDKEAAERTLKELEEAAKEYAKDEAKTMSEEEAKRRAKKYKEKVLLSELSEEEQKEIKEAEEKLVRTILKYVEEAAK = moderate
• M58Y (designed binder) SMEEEVEKAAKEYEKKKKEAIEKHLEKLKAKDKEAAERFLKELEEAAKEYAKDEAKTYSEEEAKRRAKKYKEKVLLSELSEEEQKEIKEAEEKLVRTILKYVEEAAK = high
• K100S (designed binder) SMEEEVEKAAKEYEKKKKEAIEKHLEKLKAKDKEAAERFLKELEEAAKEYAKDEAKTMSEEEAKRRAKKYKEKVLLSELSEEEQKEIKEAEEKLVRTILSYVEEAAK = low
• L94F (designed binder) SMEEEVEKAAKEYEKKKKEAIEKHLEKLKAKDKEAAERFLKELEEAAKEYAKDEAKTMSEEEAKRRAKKYKEKVLLSELSEEEQKEIKEAEEKFVRTILKYVEEAAK = low
• A105E (designed binder) SMEEEVEKAAKEYEKKKKEAIEKHLEKLKAKDKEAAERFLKELEEAAKEYAKDEAKTMSEEEAKRRAKKYKEKVLLSELSEEEQKEIKEAEEKLVRTILKYVEEEAK = low
• E78Y (designed binder) SMEEEVEKAAKEYEKKKKEAIEKHLEKLKAKDKEAAERFLKELEEAAKEYAKDEAKTMSEEEAKRRAKKYKEKVLLSYLSEEEQKEIKEAEEKLVRTILKYVEEAAK = low
• R38E (designed binder) SMEEEVEKAAKEYEKKKKEAIEKHLEKLKAKDKEAAEEFLKELEEAAKEYAKDEAKTMSEEEAKRRAKKYKEKVLLSELSEEEQKEIKEAEEKLVRTILKYVEEAAK = moderate
• E61A (designed binder) SMEEEVEKAAKEYEKKKKEAIEKHLEKLKAKDKEAAERFLKELEEAAKEYAKDEAKTMSEAEAKRRAKKYKEKVLLSELSEEEQKEIKEAEEKLVRTILKYVEEAAK = moderate
• R65P (designed binder) SMEEEVEKAAKEYEKKKKEAIEKHLEKLKAKDKEAAERFLKELEEAAKEYAKDEAKTMSEEEAKPRAKKYKEKVLLSELSEEEQKEIKEAEEKLVRTILKYVEEAAK = high
• A46K (designed binder) SMEEEVEKAAKEYEKKKKEAIEKHLEKLKAKDKEAAERFLKELEEKAKEYAKDEAKTMSEEEAKRRAKKYKEKVLLSELSEEEQKEIKEAEEKLVRTILKYVEEAAK = high
• D32M (designed binder) SMEEEVEKAAKEYEKKKKEAIEKHLEKLKAKMKEAAERFLKELEEAAKEYAKDEAKTMSEEEAKRRAKKYKEKVLLSELSEEEQKEIKEAEEKLVRTILKYVEEAAK = high
• A51I (designed binder) SMEEEVEKAAKEYEKKKKEAIEKHLEKLKAKDKEAAERFLKELEEAAKEYIKDEAKTMSEEEAKRRAKKYKEKVLLSELSEEEQKEIKEAEEKLVRTILKYVEEAAK = high
• E37C (designed binder) SMEEEVEKAAKEYEKKKKEAIEKHLEKLKAKDKEAACRFLKELEEAAKEYAKDEAKTMSEEEAKRRAKKYKEKVLLSELSEEEQKEIKEAEEKLVRTILKYVEEAAK = low
